Target: T1, CD47(19-136)-hFc (human, biotin-labelled in the Octet assay of Example 8 (sites not given))
T1 construct: tied by name; also called CD47-hFc; CD47-hFc-Biotin
T1 sequence (chain, as listed by the source limits assumed): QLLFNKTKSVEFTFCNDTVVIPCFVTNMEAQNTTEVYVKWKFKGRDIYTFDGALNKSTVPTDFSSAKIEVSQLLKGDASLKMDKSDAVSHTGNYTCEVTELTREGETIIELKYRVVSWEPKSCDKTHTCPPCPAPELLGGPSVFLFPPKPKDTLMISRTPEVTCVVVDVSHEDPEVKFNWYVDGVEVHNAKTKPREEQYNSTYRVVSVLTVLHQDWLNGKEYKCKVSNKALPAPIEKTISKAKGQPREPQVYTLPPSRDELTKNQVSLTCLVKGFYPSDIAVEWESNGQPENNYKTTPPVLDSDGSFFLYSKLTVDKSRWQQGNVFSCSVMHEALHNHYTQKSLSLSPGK
Assay: BLI (Fortebio Octet RED96), biotinylated CD47-hFc on SA sensor, antibody in solution
outcome.measure: Kd (nM)
Answers are plain numbers, in nM.

Solved cases below.
Hu34-39-PE (antibody, IgG4, V domains shown, also called humanized anti-CD47 antibody Hu34-39-PE) VH: QVQLQESGPGLVKPSQTLSLTCKASGYTFTNYWITWVKQRPGQGLEWIGDITPGRGETNYNQKFKGRVTLTVDISASTAYMELSSLRSEDTAVYYCSRWGLRRGDYWGQGTSVTVSS VL: EIVLTQSPGTLSLSPGERATLSCRASSSVSSSYLNWYQQKSGASPKLWIYSTSNLASGVPGRFSGSGSGTSYSLTISSVEAEDAATYYCQQYSGYPLTFGAGTKLEVK : 0.113
Hu58A-14-PE (antibody, IgG4, V domains shown, also called humanized anti-CD47 antibody Hu58A-14-PE) VH: EVQLLESGGGLVQPGGSLRLSCAASGFIFSRFGMAWVRQTPDKRLEWVATISSGGSYTYYPDSVKGRLTISRDNAKTTLYLQMRSLKSEDTAMYYCARQGLLDYLYALDYWGQGTAVTVSS VL: DIQMTQSPSSVSASIGDRVTITCKASQDINSFLAWFQQKPGKSPRPLIYRAYRLVDGVPSRFSGVGSGQDYSLTISSLDYEDLGIYYCQQYVEFPPTFGAGTMLELK : 0.0946
AB6.12-IgG4P (antibody, V domains shown, Anti-CD47 control antibody from WO2013/119714; also called AB06.12-4P; AB06.12-P) VH: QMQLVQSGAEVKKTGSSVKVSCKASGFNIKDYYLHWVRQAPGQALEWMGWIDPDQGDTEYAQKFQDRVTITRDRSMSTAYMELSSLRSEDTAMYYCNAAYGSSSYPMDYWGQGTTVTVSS VL: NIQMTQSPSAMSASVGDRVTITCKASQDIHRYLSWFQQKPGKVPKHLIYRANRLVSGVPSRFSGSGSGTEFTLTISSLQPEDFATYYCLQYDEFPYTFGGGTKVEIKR : 0.101

Next:
## Input Data request, read-out Kd, for Hu26T-31-PE (antibody, IgG4, V domains shown, also called humanized anti-CD47 antibody Hu26T-31-PE) VH: QVQLVQSGAEVKKPGASVKVSCKASGYTFTDYYMNWVRQAPGQGLEWIGRIYPGSGLTYYNAKFKGRATVTADKSTSTVYMELSSLRSEDTAVYYCARTSYGSSFPHVWGQGTTVTVSS VL: DIQMTQSPSSLSASVGDRVTITCKSSQSLLNVNDQKNYLAWYQQKPGKAPKLLIYFASTRESGVPSRFSGSGSGTDFTLTISSLQPEDFATYYCQQHYSTPLTFGQGTKLEIK
## Output 0.0587
